These data points were gathered from paper PMC4336329.

Kindly state hERG current change (%, negative = inhibition) at 10uM for each of the entries shown.
Biological target: human ether-à-go-go-related gene (hERG) potassium channel (human, UniProt Q12809);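 further: peak tail current of the secondary pulse compared with the same well before compound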
Sequence (Q12809 whole entry, looked up): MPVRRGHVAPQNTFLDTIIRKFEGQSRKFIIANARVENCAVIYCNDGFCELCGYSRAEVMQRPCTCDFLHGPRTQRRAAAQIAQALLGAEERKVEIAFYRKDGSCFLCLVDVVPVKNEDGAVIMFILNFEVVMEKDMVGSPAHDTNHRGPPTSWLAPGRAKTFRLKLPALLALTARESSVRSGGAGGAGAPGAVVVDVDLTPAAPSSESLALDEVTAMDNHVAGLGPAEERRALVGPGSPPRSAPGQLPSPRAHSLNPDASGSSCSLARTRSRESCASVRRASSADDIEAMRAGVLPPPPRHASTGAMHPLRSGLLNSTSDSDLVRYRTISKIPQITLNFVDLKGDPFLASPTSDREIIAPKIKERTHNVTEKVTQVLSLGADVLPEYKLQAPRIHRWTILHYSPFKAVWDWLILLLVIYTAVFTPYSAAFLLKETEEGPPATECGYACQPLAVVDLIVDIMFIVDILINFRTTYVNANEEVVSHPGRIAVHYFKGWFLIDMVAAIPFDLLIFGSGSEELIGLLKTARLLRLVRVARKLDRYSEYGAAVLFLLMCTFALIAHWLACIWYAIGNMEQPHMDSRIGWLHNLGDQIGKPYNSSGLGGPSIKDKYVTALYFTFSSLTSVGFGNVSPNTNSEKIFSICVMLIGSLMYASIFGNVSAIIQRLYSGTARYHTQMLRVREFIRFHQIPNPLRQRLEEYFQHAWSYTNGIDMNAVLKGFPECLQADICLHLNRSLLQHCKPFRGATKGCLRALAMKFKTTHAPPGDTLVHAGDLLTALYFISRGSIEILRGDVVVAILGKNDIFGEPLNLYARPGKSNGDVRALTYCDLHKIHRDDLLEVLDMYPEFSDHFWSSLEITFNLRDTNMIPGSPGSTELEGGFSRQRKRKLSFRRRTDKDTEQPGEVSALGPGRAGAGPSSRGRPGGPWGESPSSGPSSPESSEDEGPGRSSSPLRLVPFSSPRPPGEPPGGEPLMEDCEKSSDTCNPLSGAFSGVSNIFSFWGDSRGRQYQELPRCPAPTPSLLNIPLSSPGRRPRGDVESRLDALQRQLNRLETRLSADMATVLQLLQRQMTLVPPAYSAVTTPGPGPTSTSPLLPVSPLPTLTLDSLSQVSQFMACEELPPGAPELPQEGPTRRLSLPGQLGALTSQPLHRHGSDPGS
Experiment: primary screen, population patch clamp on CHO cells stably expressing hERG; higher = less effect of the substance
Hit rate of the full screen: of about 310,000 compounds, about 14,000 (4.5%) showed an effect of 50% or more. Effects have a minus sign here. The entries come from a sample that favours strong results as a whole.
Supply the numeric figure in %, leaving out any unit text.

The recorded hERG current change (%, negative = inhibition) at 10uM for C/C(CC(=O)Nc1ccccn1)=N\NC(=O)c1ccccc1O is 6.73

For reference, reported hERG current change (%, negative = inhibition) at 10uM for CC(=O)Nc1cccc(OCC(=O)NS(=O)(=O)c2ccc(C)cc2)c1 stands at 1.18

For this compound ( Cc1ccc2oc(C(=O)N3CCC(C(N)=O)(N4CCCCC4)CC3)c(C)c2c1 ), measured hERG current change (%, negative = inhibition) at 10uM is -27

The reported value for N#CC1(NC(=O)COc2ccc3oc4ccccc4c3c2)CCCCC1 in terms of hERG current change (%, negative = inhibition) at 10uM is 12.1

Reported hERG current change (%, negative = inhibition) at 10uM for Cc1ccsc1C(=O)C1CCCN(Cc2cnc(N(C)C)s2)C1 (centres unmarked) was -9.23

// sample COC(CNC(=O)c1ccc2c(c1)ncn2C1CCCCCC1)OC , its hERG current change (%, negative = inhibition) at 10uM was 4.09

The compound listed as CC(C)=CC(=O)N1CCC(N2CCC(C(=O)N3CCOCC3)CC2)CC1 shows hERG current change (%, negative = inhibition) at 10uM equal to 28.3

hERG current change (%, negative = inhibition) at 10uM in this record for Cc1csc(NC(=O)CSc2nncn2C)n1 : 19

Field hERG current change (%, negative = inhibition) at 10uM (entry Cc1ccccc1NC(=O)C1CCN(c2cnccn2)CC1 ) reads -14.7

Record summary for Cc1cccnc1NC(=O)c1cccc(S(=O)(=O)N2CCCC2)c1 : reported hERG current change (%, negative = inhibition) at 10uM = -8.13

# compound COc1ccc(OCC(O)CN2CC(C)OC(C)C2)cc1.Cl (centres unmarked) ; its hERG current change (%, negative = inhibition) at 10uM = 17.5

Lab book: hERG current change (%, negative = inhibition) at 10uM of C#CCNC(=O)C1=C[C@@H](c2ccc(Br)cc2)[C@H](CCCO)[C@@H](OCC)O1 noted as -28.4

Measured hERG current change (%, negative = inhibition) at 10uM, C=CCC(CC=C)(C(=O)O)c1ccccc1 : -8.46

For this compound ( Cc1ccsc1C(=O)C1CCCN(Cc2cccn2-c2ccc(Cl)cn2)C1 (centres unmarked) ), measured hERG current change (%, negative = inhibition) at 10uM is -77.6

// recorded hERG current change (%, negative = inhibition) at 10uM for CC(C)c1ccc(OCC(O)CN2CCCC2)cc1.Cl (centres unmarked) : -11.1

// recorded hERG current change (%, negative = inhibition) at 10uM for CC(=O)c1cc(CN2CCC(N3CCC(C(=O)N4CCCC4)CC3)CC2)cs1 : -2.23

The measured hERG current change (%, negative = inhibition) at 10uM associated with COc1ccc(-c2cc(=Nc3ccc(C)cc3)c3ccccc3o2)cc1 reads 5.87

Form: compound = COC(=O)c1ccc(NC(=O)COC(=O)C2CCC2)cc1 ; hERG current change (%, negative = inhibition) at 10uM = 4.03

Reported hERG current change (%, negative = inhibition) at 10uM for CC1CN(CC(O)COC(c2ccc(Cl)cc2)c2ccc(Cl)cc2)CC(C)O1.Cl (centres unmarked) was -71.9

// OC(COC(c1ccc(Cl)cc1)c1ccc(Cl)cc1)CN1CCCC1 (centres unmarked) : hERG current change (%, negative = inhibition) at 10uM value = -77.4

Looking up COC(=O)c1ccc(C(=O)OC)c(NC(=S)N2CCN(C)CC2)c1 , I see its hERG current change (%, negative = inhibition) at 10uM listed as 20.4

Per the record, Fc1ccc(N2CCN(c3nc(-c4ccco4)cc(C(F)(F)F)n3)CC2)cc1 has hERG current change (%, negative = inhibition) at 10uM of 15.2

Note to self: hERG current change (%, negative = inhibition) at 10uM recorded for O=[N+]([O-])c1ccc(NCc2ccccc2)c2nonc12 was 19.7

// hERG current change (%, negative = inhibition) at 10uM lookup, compound = CCOc1cccc(C2/C(=C(/O)c3ccc4c(c3)CC(C)O4)C(=O)C(=O)N2CCN2CCOCC2)c1 (centres unmarked) , result: 14.7

hERG current change (%, negative = inhibition) at 10uM reading for CCOC(=O)COn1c(-n2nc(C)cc2C)nc2ccccc2c1=O : 0.487

CC(C)=CCCC(C)CN1CCC(N2CCC(C(=O)N3CCCC3)CC2)CC1 (centres unmarked) yielded hERG current change (%, negative = inhibition) at 10uM of -74.8

---

Record form. Attribute: hERG current change (%, negative = inhibition) at 10uM. Fill in for each entry.
Biological target: human ether-à-go-go-related gene (hERG) potassium channel (human);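 further: peak tail current of the secondary pulse compared with the same well before compound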
Assay: primary screen, population patch clamp on CHO cells stably expressing hERG; higher = less effect of the substance
Out of some 310,000 compounds screened, about 14,000 (4.5%) showed an effect of 50% or more. Effects have a minus sign here. Shown is part of a subset that was picked to be rich in strong results.
Give me the value, and tack the unit on after it.

Per the record, COc1cc(C(=O)N[C@@H](Cc2c[nH]c3ccccc23)C(=O)O)cc(OC)c1OC has hERG current change (%, negative = inhibition) at 10uM of -53.1%

The compound listed as O=C(Nc1ccccc1SCC1CSc2nc3ccccc3c(=O)n21)c1ccccc1Cl (stereo not shown) has a reported hERG current change (%, negative = inhibition) at 10uM of -70.5%

What the record says about CC(C)(C)C(=O)O/N=C(\N)c1ccc([N+](=O)[O-])s1 : hERG current change (%, negative = inhibition) at 10uM is 20.7%

Data point: CN1CCN(S(=O)(=O)c2cccc([N+](=O)[O-])c2)CC1 ; hERG current change (%, negative = inhibition) at 10uM = 18.7%

The compound listed as COc1ccc2oc(C(=O)N3CCc4ccccc43)c(C)c2c1 has a reported hERG current change (%, negative = inhibition) at 10uM of 15.1%

Item: CN1CCN(C=NC2=NN(c3cccc(C(F)(F)F)c3)CC2)CC1 | hERG current change (%, negative = inhibition) at 10uM: -23.9%

compound COc1ccc(CCNC(=O)C2CC(c3ccc(C(F)(F)F)cc3)=NO2)cc1 (stereo not shown) , hERG current change (%, negative = inhibition) at 10uM observed: -6.74%

What the record says about O=C(NC(Cc1c[nH]c2ccccc12)C(=O)O)c1ccccc1 (stereo not shown) : hERG current change (%, negative = inhibition) at 10uM is 1.22%

The compound COc1ccc(NS(=O)(=O)c2cccc(C(=O)NCC(c3ccco3)N3CCCC3)c2)cc1 (stereo not shown) showed hERG current change (%, negative = inhibition) at 10uM equal to -36.8%

// sample C=CCN1C(=O)/C(=C\c2cccc(OC(=O)c3ccco3)c2)SC1=S , its hERG current change (%, negative = inhibition) at 10uM was 2.37%

Sure, the documented hERG current change (%, negative = inhibition) at 10uM for COc1cc(CNCCc2c[nH]c3ccccc23)ccc1OCc1ccc(F)cc1.Cl is -48.4%

hERG current change (%, negative = inhibition) at 10uM reading for Cc1c[n+](CC(=O)c2ccccc2)cs1.[Br-] : 22%

The value of hERG current change (%, negative = inhibition) at 10uM measured for the compound O=c1c2ccccc2nc2n1C(CSCc1ccccc1)CS2 (stereo not shown) turned out to be -37.1%

---

Target: human ether-à-go-go-related gene (hERG) potassium channel (human, UniProt Q12809);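 further: peak tail current of the secondary pulse compared with the same well before compound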
Experiment: primary screen, population patch clamp on CHO cells stably expressing hERG; higher = less effect of the substance
Protocol: Briefly, Chinese hamster ovary (CHO) cells stably expressing the hERG channel were dislodged from tissue culture flasks and dispensed into PPC plates. […] During the recording, background leak currents were estimated by a 100 ms step to -80 mV from an initial holding potential of -70 mV and subtracted from the subsequent current measurement. The campaign was conducted in two phases using slight differences in recording protocol. […]
Out of some 310,000 compounds screened, about 14,000 (4.5%) showed an effect of 50% or more. The effect is printed as a negative number. Shown is part of a subset that was picked to be rich in strong results.
Kindly supply the reported hERG current change (%, negative = inhibition) at 10uM values for the records listed here.
Number in %, nothing else.

For CC1CC(C)CN(CCC(=O)Nc2ccc(Br)cc2)C1.Cl (stereo not shown) the compound record lists hERG current change (%, negative = inhibition) at 10uM as -53.5

Noted for Cn1nnnc1SCC(=O)Nc1ccc(N2CCOCC2)cc1 : its hERG current change (%, negative = inhibition) at 10uM reads 5.57

Record Cc1ccc(N/C=C/C(=O)c2ccco2)c(O)c1 . Reported hERG current change (%, negative = inhibition) at 10uM: 8.63

// sample COc1cccc(CN2CCN(c3ncccn3)CC2)c1OC , its hERG current change (%, negative = inhibition) at 10uM was -3.3

Looking up Cc1ccc(-c2nc(N/N=C/c3ccncc3)c3ccccc3n2)cc1 , I found its hERG current change (%, negative = inhibition) at 10uM recorded as 3.06

Reported hERG current change (%, negative = inhibition) at 10uM of O=C(COC(=O)c1ccc(F)cc1F)NCCC1=CCCCC1 : 10.6

hERG current change (%, negative = inhibition) at 10uM reading for Nc1ccccc1SCC1CSc2nc3ccccc3c(=O)n21 (stereo not shown) : -45.2

The compound identified as CC(=O)N1CCN(Cc2nc3cc(NC(=O)c4cccc(Br)c4)ccc3n2C)CC1 registered its hERG current change (%, negative = inhibition) at 10uM at -70

Item: CC1CCN(CCC(=O)Nc2ccc(Cl)cc2)CC1.Cl | hERG current change (%, negative = inhibition) at 10uM: -56.9

According to the records, this compound CC(=O)N1CCN(Cc2nc3cc(NC(=O)c4ccccc4)ccc3n2C)CC1 displays hERG current change (%, negative = inhibition) at 10uM of 15.8
